# ASSAYED SYSTEM: T1, human LILRA2 (human, UniProt Q8N149 24-483)
# T1 construct: Over-expressed on CHO-s cells; also called hLILRA2
# T1 sequence (Q8N149 24-483 S135L limits assumed): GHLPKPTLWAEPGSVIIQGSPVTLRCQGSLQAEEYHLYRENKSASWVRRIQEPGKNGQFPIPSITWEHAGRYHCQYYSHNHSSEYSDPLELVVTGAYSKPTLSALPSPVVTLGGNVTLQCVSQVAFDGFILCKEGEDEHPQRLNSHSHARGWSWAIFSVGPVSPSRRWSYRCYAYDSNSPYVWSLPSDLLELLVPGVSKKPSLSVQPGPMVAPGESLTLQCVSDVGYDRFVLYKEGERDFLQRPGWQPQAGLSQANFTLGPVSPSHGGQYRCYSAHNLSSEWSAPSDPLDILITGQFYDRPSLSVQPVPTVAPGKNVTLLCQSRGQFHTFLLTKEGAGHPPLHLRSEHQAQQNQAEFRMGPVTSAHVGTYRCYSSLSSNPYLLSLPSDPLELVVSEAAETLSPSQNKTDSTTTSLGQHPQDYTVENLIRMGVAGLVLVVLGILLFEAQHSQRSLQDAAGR
# ASSAY PROTOCOL: flow cytometry, LILRA2 CHOs

BINDER	binding (fold over iso)
J-19.h1 (antibody, human IgG4 S228P, kappa, V domains shown, Humanized, human IgG4 backbone) VH: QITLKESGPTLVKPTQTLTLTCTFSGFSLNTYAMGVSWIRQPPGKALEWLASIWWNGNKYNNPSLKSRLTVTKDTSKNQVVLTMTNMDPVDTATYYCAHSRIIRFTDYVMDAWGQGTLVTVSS VL: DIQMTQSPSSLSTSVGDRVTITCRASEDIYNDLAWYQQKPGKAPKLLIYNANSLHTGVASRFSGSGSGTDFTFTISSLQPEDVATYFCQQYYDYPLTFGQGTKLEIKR	0.88 fold over iso
